# Species: Rattus norvegicus
# assay details: Open TG-GATES - Regimen: Single
# Format: toxicity, organism-based, Sprague-Dawley
# Set-up: regimen Single, gender Male, age 6 weeks
# condition description: in vivo, po, 300 mg/kg, 24 h, tissue Plasma, route gavage, dose level Middle
parameter measured: TBIL (mg/dL)
Answers are plain numbers, in mg/dL.

Consider the reported TBIL for these molecules:
# molecule, TBIL, mg/dL
rows = [
    ("COC1=CC(=O)C[C@@H](C)[C@]12Oc1c(Cl)c(OC)cc(OC)c1C2=O", 0.2),
    ("CCOC(=O)CCC(=O)O[C@H]1[C@H](O[C@@H]2[C@@H](C)[C@H](O[C@H]3C[C@@](C)(OC)[C@@H](O)[C@H](C)O3)[C@@H](C)C(=O)O[C@H](CC)[C@@](C)(O)[C@H](O)[C@@H](C)C(=O)[C@H](C)C[C@@]2(C)O)O[C@H](C)C[C@@H]1N(C)C [ERYTHROMYCIN ETHYLSUCCINATE]", 0.016),
    ("NC(N)=Nc1nc(CSCCC(N)=NS(N)(=O)=O)cs1", 0.1),
]

Answer with the recorded TBIL of COc1ccc2[nH]c([S+]([O-])Cc3ncc(C)c(OC)c3C)nc2c1 (centres undefined) only.
0.2

###

# Species on record: Rattus norvegicus
# assay details: Open TG-GATES - Regimen: Daily Repeat
# Format: toxicity, organism-based, Sprague-Dawley
# Set-up: regimen Daily Repeat, gender Male, age 6 weeks
# condition description: in vivo, po, 0 mg/kg, […], tissue Plasma, route gavage, dose level Control, time 14 day
Assign Ca to each entry below.
Numbers only, in mg/dL.

Consider the reported Ca for these molecules:
# molecule, Ca (mg/dL)
records = [
    ("CCOC(=O)CCC(=O)O[C@H]1[C@H](O[C@@H]2[C@@H](C)[C@H](O[C@H]3C[C@@](C)(OC)[C@@H](O)[C@H](C)O3)[C@@H](C)C(=O)O[C@H](CC)[C@@](C)(O)[C@H](O)[C@@H](C)C(=O)[C@H](C)C[C@@]2(C)O)O[C@H](C)C[C@@H]1N(C)C [ERYTHROMYCIN ETHYLSUCCINATE]", 10.5),
    ("NC(N)=Nc1nc(CSCCC(N)=NS(N)(=O)=O)cs1", 10.8),
    ("COC1=CC(=O)C[C@@H](C)[C@]12Oc1c(Cl)c(OC)cc(OC)c1C2=O", 10.6),
    ("CC1=C(/C=C/C(C)=C/C=C/C(C)=C/CO)C(C)(C)CCC1", 10.8),
]

Answer with the recorded Ca of "NNC(=O)c1ccncc1" only.
10.4

###

# Species on record: Rattus norvegicus
# assay details: Open TG-GATES - Regimen: Single
# Type: toxicity, organism-based, Sprague-Dawley
# Parameters: regimen Single, gender Male, age 6 weeks
# condition description: in vivo, po, 1000 mg/kg, 3 h, tissue Plasma, route gavage, dose level High
parameter measured: CRE (mg/dL)
Answers are plain numbers, in mg/dL.

Consider the reported CRE for these molecules:
# molecule, parameter measured, numeric result
rows = [
    ("CC(C)OC(=O)C(C)(C)Oc1ccc(C(=O)c2ccc(Cl)cc2)cc1 [FENOFIBRATE]", "CRE", 0.2),
    ("COc1ccc2[nH]c([S+]([O-])Cc3ncc(C)c(OC)c3C)nc2c1 (stereo not given) [OMEPRAZOLE]", "CRE", 0.4),
    ("NC(N)=Nc1nc(CSCCC(N)=NS(N)(=O)=O)cs1 [FAMOTIDINE]", "CRE", 0.4),
    ("CCOC(=O)CCC(=O)O[C@H]1[C@H](O[C@@H]2[C@@H](C)[C@H](O[C@H]3C[C@@](C)(OC)[C@@H](O)[C@H](C)O3)[C@@H](C)C(=O)O[C@H](CC)[C@@](C)(O)[C@H](O)[C@@H](C)C(=O)[C@H](C)C[C@@]2(C)O)O[C@H](C)C[C@@H]1N(C)C [ERYTHROMYCIN ETHYLSUCCINATE]", "CRE", 0.1),
]

# ---- query molecule ----
Answer with the recorded CRE of COC1=CC(=O)C[C@@H](C)[C@]12Oc1c(Cl)c(OC)cc(OC)c1C2=O [GRISEOFULVIN] only.
0.3

###

# Organism: Rattus norvegicus
# assay details: Open TG-GATES - Regimen: Daily Repeat
# Format: toxicity, organism-based, Sprague-Dawley
# Parameters: regimen Daily Repeat, gender Male, age 6 weeks
# condition description: in vivo, po, 0 mg/kg, […], tissue Kidney, route gavage, dose level Control, time 28 day
parameter measured: KIDNEY_R (g)
One number for each entry, in g.

Consider the reported KIDNEY_R for these compounds:
# compound, KIDNEY_R (g)
records = [
    ("NC(N)=Nc1nc(CSCCC(N)=NS(N)(=O)=O)cs1", 1.4),
    ("O=C(CCCN1CCC(O)(c2ccc(Cl)cc2)CC1)c1ccc(F)cc1", 1.4),
    ("CCOc1ccc(NC(=O)CC(C)O)cc1 (stereo not given)", 1.4),
    ("CCCNC(=O)NS(=O)(=O)c1ccc(Cl)cc1 [CHLORPROPAMIDE]", 1.4),
]

Answer with the recorded KIDNEY_R of "CC1=C(/C=C/C(C)=C/C=C/C(C)=C/CO)C(C)(C)CCC1" only.
1.4

###

# Species on record: Rattus norvegicus
# assay details: Open TG-GATES - Regimen: Daily Repeat
# Format: toxicity, organism-based, Sprague-Dawley
# Design: regimen Daily Repeat, gender Male, age 6 weeks
# condition description: in vivo, po, 10 mg/kg, […], tissue Blood, route gavage, dose level Low, time 28 day
Assign Mono to each entry below.
One number for each entry, in %.

Consider the reported Mono for these molecules:
# molecule, units, Mono
measured = [
    ("CC1=C(/C=C/C(C)=C/C=C/C(C)=C/CO)C(C)(C)CCC1", "%", 1.6),
    ("CN(C)CCCN1c2ccccc2CCc2ccccc21", "%", 2.4),
    ("CN(C)CCN(Cc1cccs1)c1ccccn1", "%", 2.2),
]

# ---- query molecule ----
Answer with the recorded Mono of CC(C)OC(=O)C(C)(C)Oc1ccc(C(=O)c2ccc(Cl)cc2)cc1 [FENOFIBRATE] only.
2.4

###

Assign PT to each entry below.
# Organism: Rattus norvegicus
# assay details: Open TG-GATES - Regimen: Daily Repeat
# Format: toxicity, organism-based, Sprague-Dawley
# Set-up: regimen Daily Repeat, gender Male, age 6 weeks
# condition description: in vivo, po, 0 mg/kg, […], tissue Blood, route gavage, dose level Control, time 7 day
Numbers only, in s.

# compound, PT / s
rows = [
    ("COC1=CC(=O)C[C@@H](C)[C@]12Oc1c(Cl)c(OC)cc(OC)c1C2=O", 12.3),
]

Quick one: give me PT for each item below, same order please.
1. NNC(=O)c1ccncc1
2. CCCNC(=O)NS(=O)(=O)c1ccc(Cl)cc1 [CHLORPROPAMIDE]

1: 12; 2: 15.5

###

# Organism: Rattus norvegicus
# assay details: Open TG-GATES - Regimen: Single
# Type: toxicity, organism-based, Sprague-Dawley
# Parameters: regimen Single, gender Male, age 6 weeks
# condition description: in vivo, po, 100 mg/kg, 6 h, tissue Plasma, route gavage, dose level High
parameter measured: TBIL (mg/dL)
One number for each entry, in mg/dL.

Consider the reported TBIL for these molecules:
# molecule, TBIL (mg/dL)
measured = [
    ("CN(C)CCCN1c2ccccc2CCc2ccc(Cl)cc21 [CLOMIPRAMINE]", 0.064),
    ("CN(C)CCN(Cc1cccs1)c1ccccn1", 0.02),
    ("CC1=C(/C=C/C(C)=C/C=C/C(C)=C/CO)C(C)(C)CCC1 [RETINOL]", 0.016),
]

# ---- query molecule ----
Answer with the recorded TBIL of CN(C)CCCN1c2ccccc2CCc2ccccc21 [IMIPRAMINE] only.
0.062

###

# Species: Rattus norvegicus
# assay details: Open TG-GATES - Regimen: Daily Repeat
# Type: toxicity, organism-based, Sprague-Dawley
# Set-up: regimen Daily Repeat, gender Male, age 6 weeks
# condition description: in vivo, po, 100 mg/kg, […], tissue Blood, route gavage, dose level Low, time 28 day
Assign Fbg to each entry below.
Respond with the figure and its unit, in that order.

Consider the reported Fbg for these compounds:
# compound, Fbg
measured = [
    ("COC1=CC(=O)C[C@@H](C)[C@]12Oc1c(Cl)c(OC)cc(OC)c1C2=O", "219.6 mg/dL"),
    ("NC(N)=Nc1nc(CSCCC(N)=NS(N)(=O)=O)cs1", "219.4 mg/dL"),
    ("CCOC(=O)CCC(=O)O[C@H]1[C@H](O[C@@H]2[C@@H](C)[C@H](O[C@H]3C[C@@](C)(OC)[C@@H](O)[C@H](C)O3)[C@@H](C)C(=O)O[C@H](CC)[C@@](C)(O)[C@H](O)[C@@H](C)C(=O)[C@H](C)C[C@@]2(C)O)O[C@H](C)C[C@@H]1N(C)C [ERYTHROMYCIN ETHYLSUCCINATE]", "339 mg/dL"),
    ("COc1ccc2[nH]c([S+]([O-])Cc3ncc(C)c(OC)c3C)nc2c1 (stereo not given)", "210.4 mg/dL"),
]

# ---- query compound ----
Answer with the recorded Fbg of CCOc1ccc(NC(=O)CC(C)O)cc1 (stereo not given) only.
280.4 mg/dL
